# SYSTEM UNDER TEST: Beta-3 Adrenergic Receptor (Homo sapiens (Human), UniProt P13945)
# Sequence (P13945 whole entry, species assumed): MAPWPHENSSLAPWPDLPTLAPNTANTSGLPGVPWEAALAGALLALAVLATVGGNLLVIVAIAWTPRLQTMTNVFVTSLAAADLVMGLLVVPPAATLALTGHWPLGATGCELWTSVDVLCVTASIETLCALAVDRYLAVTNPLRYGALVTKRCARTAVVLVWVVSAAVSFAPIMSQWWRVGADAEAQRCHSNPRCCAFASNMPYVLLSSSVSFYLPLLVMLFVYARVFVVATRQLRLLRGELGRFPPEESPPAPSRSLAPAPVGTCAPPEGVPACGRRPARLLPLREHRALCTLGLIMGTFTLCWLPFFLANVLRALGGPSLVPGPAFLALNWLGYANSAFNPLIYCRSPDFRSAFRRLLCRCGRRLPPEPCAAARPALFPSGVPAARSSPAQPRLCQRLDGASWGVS
# MEASUREMENT PROTOCOL: Homogeneous Time-Resolved Fluorescence (HTRF) cAMP antagonist assay, IC50 determination
# PARTICULARS: CHO-K1 cells stably expressing recombinant receptor, isoproterenol at EC90
MEASURE NAME: IC50 (nM)

Record excerpt, results attached:
{"columns": ["MOLECULE", "SYSTEM UNDER TEST", "IC50, nM"],
 "data": [
  ["CCNS(=O)(=O)c1cccc(OC[C@@H](O)CNC2COC3(CCN(S(=O)(=O)c4cccc(-c5ccc(N)nc5)c4)CC3)C2)c1 (stereo partly drawn)", "Beta-3 Adrenergic Receptor (Homo sapiens (Human), UniProt P13945)", 13.6],
  ["CNS(=O)(=O)c1cccc(OC[C@@H](O)CN[C@@H]2COC3(CCN(S(=O)(=O)c4cccc(-c5ccc(CNCC(C)C)cc5)c4)CC3)C2)c1", "Beta-3 Adrenergic Receptor (Homo sapiens (Human), UniProt P13945)", 20.5],
  ["COCCN(C)S(=O)(=O)c1cccc(OC[C@@H](O)CNC2COC3(CCN(S(=O)(=O)c4ccc5ccccc5c4)CC3)C2)c1 (stereo partly drawn)", "Beta-3 Adrenergic Receptor (Homo sapiens (Human), UniProt P13945)", 58.8],
  ["CNS(=O)(=O)c1cccc(OC[C@@H](O)CNC2COC3(CCN(S(=O)(=O)c4ccc(OC)c(F)c4)CC3)C2)c1 (stereo partly drawn)", "Beta-3 Adrenergic Receptor (Homo sapiens (Human), UniProt P13945)", 23.4]
]}

1. CN(C)S(=O)(=O)c1cccc(OC[C@@H](O)CNC2COC3(CCN(S(=O)(=O)c4ccc5c(c4)NC(=O)CO5)CC3)C2)c1 (stereo partly drawn)
2. CN1CCOc2ncc(S(=O)(=O)N3CCC4(CC3)C[C@@H](NC[C@H](O)COc3cccc(S(=O)(=O)N[C@H]5CCCC[C@@H]5O)c3)CO4)cc21
Request: // returns 1 or 2 , whichever has the lower IC50 Give the chosen item's label as your response.
Result: 1
(1: 24.2 nM, 2: 1160 nM)
